Listed here: items and their measured GI50.
- Test system: KM12
- Assay Explanation: NCI tumour cell line growth inhibition, 48 h
Calls of active or inactive are those of the source. No stated cut-off is given here; in the data, active = GI50 up to about 1.1 µM and inactive = higher.

These solved cases illustrate the format of a correct answer.
Molecule	GI50
CCc1c(-c2coc(CC/C(C)=C/c3ccccc3)n2)oc(OC)c(C)c1=O	78.9 µM (inactive)
CN(C)CCC1(C2=CCCC2)CC/C(=C\c2ccccc2)C1=O (configuration not stated)	15.5 µM (inactive)
O=C1NC(=S)N/C1=C\c1cccs1	> 100 µM (inactive)
C1CSCCSCCCSCCSCCCSCCSCCCSCCSC1	> 100 µM (inactive)
COC(=O)/C=C1/OC(c2ccccc2)=CC1=O	16.7 µM (inactive)

Give the reported value of GI50 for this record: BC(=O)NC(CC(C)C)C(=O)NC1c2ccsc2C(=O)C1O.CN(C)C (configuration not stated)
> 100 µM (inactive)

Give the reported value of GI50 for this record: "CC/C=C/C[C@H](O[Si](C)(C)C(C)(C)C)[C@H]1C[C@H]2O[C@H]([C@@H](O)C#C[Si](C)(C)C)C[C@H]2O1"
17.9 µM (inactive)
